# Run Description: Cytotoxicity against HEK293 cells assessed as cell viability at 10 uM after 24 hrs by MTT assay
# Type: cell-based
# Conditions Used: human, read-out: Activity
Label key: rule met means viability at 24 h, 10 µM under 90%; rule not met means viability at 24 h, 10 µM of 90% or more.

>  <Molecule>
Clc1ccc(C2=NN(c3ccc(-c4ccccc4)nn3)C(c3ccccc3)C2)cc1 (stereo not given)

>  <Classification>
rule met

$$$$
>  <Molecule>
Clc1ccc(C2=NN(c3ccc(-c4ccccc4)nn3)C(c3ccc(Cl)cc3)C2)cc1 (stereo not given)

>  <Classification>
rule met

$$$$
>  <Molecule>
FC(F)(F)c1ccc(C2CC(c3ccc(Cl)cc3)=NN2c2ccc(-c3ccccc3)nn2)cc1 (stereo not given)

>  <Classification>
rule not met

$$$$
>  <Molecule>
Fc1ccc(C2CC(c3ccc(Cl)cc3)=NN2c2ccc(-c3ccccc3)nn2)cc1 (stereo not given)

>  <Classification>
rule met

$$$$

---

# Run Description: Cytotoxicity against HEK293 cells assessed as cell viability at 200 uM after 24 hrs by MTT assay
# Type: cell-based
# Conditions Used: human, read-out: Activity
Readout Type: viability at 24 h, 200 µM (%)

>  <Molecule>
COc1ccc(C2CC(c3ccccc3)=NN2c2ccc(-c3ccccc3)nn2)c(OC)c1 (stereo not drawn)

>  <Reading>
81.1

$$$$
>  <Molecule>
FC(F)(F)c1ccc(C2CC(c3ccccc3)=NN2c2ccc(-c3ccccc3)nn2)cc1 (stereo not drawn)

>  <Reading>
82.3

$$$$
>  <Molecule>
Fc1ccc(C2CC(c3ccccc3)=NN2c2ccc(-c3ccccc3)nn2)cc1 (stereo not drawn)

>  <Reading>
86.3

$$$$
>  <Molecule>
Clc1ccc(C2=NN(c3ccc(-c4ccccc4)nn3)C(c3ccc(Cl)cc3)C2)cc1 (stereo not drawn)

>  <Reading>
79.8

$$$$
>  <Molecule>
Fc1ccc(C2CC(c3ccc(Cl)cc3)=NN2c2ccc(-c3ccccc3)nn2)cc1 (stereo not drawn)

>  <Reading>
75.8

$$$$
>  <Molecule>
Clc1ccc(C2CC(c3ccccc3)=NN2c2ccc(-c3ccccc3)nn2)cc1 (stereo not drawn)

>  <Reading>
88.3

$$$$
>  <Molecule>
Clc1ccc(C2=NN(c3ccc(-c4ccccc4)nn3)C(c3ccccc3)C2)cc1 (stereo not drawn)

>  <Reading>
78.1

$$$$
>  <Molecule>
FC(F)(F)c1ccc(C2CC(c3ccc(Cl)cc3)=NN2c2ccc(-c3ccccc3)nn2)cc1 (stereo not drawn)

>  <Reading>
84.6

$$$$

---

# Run Description: Cytotoxicity against HEK293 cells assessed as cell viability at 300 uM after 24 hrs by MTT assay
# Assay type: cell-based
# Conditions Used: human, read-out: Activity
Readout Type: viability at 24 h, 300 µM

>  <Compound>
FC(F)(F)c1ccc(C2CC(c3ccc(Cl)cc3)=NN2c2ccc(-c3ccccc3)nn2)cc1 (stereo not drawn)

>  <Reading>
79.1%

$$$$
>  <Compound>
COc1ccc(C2CC(c3ccccc3)=NN2c2ccc(-c3ccccc3)nn2)c(OC)c1 (stereo not drawn)

>  <Reading>
74.2%

$$$$
>  <Compound>
Fc1ccc(C2CC(c3ccc(Cl)cc3)=NN2c2ccc(-c3ccccc3)nn2)cc1 (stereo not drawn)

>  <Reading>
68.8%

$$$$
>  <Compound>
Clc1ccc(C2CC(c3ccccc3)=NN2c2ccc(-c3ccccc3)nn2)cc1 (stereo not drawn)

>  <Reading>
74%

$$$$
>  <Compound>
Fc1ccc(C2CC(c3ccccc3)=NN2c2ccc(-c3ccccc3)nn2)cc1 (stereo not drawn)

>  <Reading>
78.6%

$$$$
>  <Compound>
FC(F)(F)c1ccc(C2CC(c3ccccc3)=NN2c2ccc(-c3ccccc3)nn2)cc1 (stereo not drawn)

>  <Reading>
70.8%

$$$$
>  <Compound>
Clc1ccc(C2=NN(c3ccc(-c4ccccc4)nn3)C(c3ccc(Cl)cc3)C2)cc1 (stereo not drawn)

>  <Reading>
76.4%

$$$$
>  <Compound>
Clc1ccc(C2=NN(c3ccc(-c4ccccc4)nn3)C(c3ccccc3)C2)cc1 (stereo not drawn)

>  <Reading>
71.6%

$$$$
